- MEASURED_ON: T1, human chemokine (C-C motif) receptor 8 (CCR8) protein (human, UniProt P51685 1-355)
- T1 construct: whole, on cells; also called human CCR8
- ASSAY_TEXT: cell binding, CCR8-expressing U2OS cells, curve fit
- Set-up: unit not given here
MEASURED_QUANTITY: LogEC50
Provide a numeric answer; units are not to be included.

Input line: Can you share its LogEC50? I mean this binder: 137-H3L2 (LM-108) (antibody, V domains shown, Humanized 137D1H10; Detected with anti-human IgG) VH: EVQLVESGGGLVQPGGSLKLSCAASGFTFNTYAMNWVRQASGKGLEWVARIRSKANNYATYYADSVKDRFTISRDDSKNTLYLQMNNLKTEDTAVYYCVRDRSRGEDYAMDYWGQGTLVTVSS VL: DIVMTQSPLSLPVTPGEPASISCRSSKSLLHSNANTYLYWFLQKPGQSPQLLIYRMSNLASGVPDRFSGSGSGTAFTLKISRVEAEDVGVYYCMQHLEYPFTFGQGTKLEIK
Output line: -0.69
